Below, each of the molecules is paired with its reported melting point value.

{"molecule": "CCC(=Cc1ccccc1)C1=CC=C2C(C1)C(C)(C)CCC2(C)C (configuration not stated)", "observed value": "65 °C"}
{"molecule": "COCCOCOc1c(C(C)(C)C)cc(C2=NC(=S)N=N2)cc1C(C)(C)C", "observed value": "187 °C"}
{"molecule": "O=CN(O)C(CC1CCS(=O)(=O)CC1)CS(=O)(=O)c1ccc(Oc2ccc(OC(F)(F)F)cc2)cc1 (configuration not stated)", "observed value": "143 to 144 °C"}
{"molecule": "O=P(O)(O)CNC1CCCCC1", "observed value": "279 to 284 °C"}
{"molecule": "CC1=C(c2ccc(Cl)cc2)n2ncc(C#N)c2N(C(=O)CCl)C1", "observed value": "138 to 140 °C"}
{"molecule": "O=C1NC(=O)C(CCCCCc2ccc(O)cc2)O1 (configuration not stated)", "observed value": "96 to 97 °C"}

Record "O=C(O)C(Cl)=C(Cl)C(=O)N(Cc1ccco1)Cc1ccco1" , field melting point: 149 °C

Record "COc1cc2c(cc1OC)CN(CCCCNC(=O)c1cc(I)ccc1OCCF)CC2" , field melting point: 121 to 123 °C

Record "Cc1ccc(NC(=O)c2cccc(C(F)(F)F)c2)cc1-c1ccc2scnc2c1" , field melting point: 90 to 93 °C

Record "CC(C)(C)c1cc(NC(=O)c2cccc(C(=O)O)c2)cc(C(C)(C)C)c1O" , field melting point: 253 to 257 °C

Record "FC(F)(F)Oc1ccc(-n2cnc(-c3ccc(CBr)cc3)n2)cc1" , field melting point: 124 to 126 °C

Record CN(C)C1(c2ccccc2)CCC2(OCCc3c2[nH]c2ccccc32)C(F)C1 (configuration not stated) , field melting point: 245 to 247 °C

* * *

measurement kind: melting point

{"molecule": "Nc1ncc(CCCCc2ccccc2)c(N)n1", "measurement kind": "melting point", "observed value": "126 to 127 °C"}
{"molecule": "CN(Cc1cccc(O)c1)c1cnc(-c2ccccc2)c(-c2ccccc2)n1", "measurement kind": "melting point", "observed value": "156 to 157 °C"}
{"molecule": "COC(=O)CC1c2ccc(Cl)cc2NC(=O)C1[N+](=O)[O-] (stereo not drawn)", "measurement kind": "melting point", "observed value": "135 °C"}
{"molecule": "OCCN1CCN(c2cc(Cl)nc(-c3ccccc3)n2)CC1", "measurement kind": "melting point", "observed value": "103 to 105 °C"}
{"molecule": "Cc1ccccc1-c1nc(-c2ccc(F)cc2)n[nH]1", "measurement kind": "melting point", "observed value": "119 to 121 °C"}
{"molecule": "COCCNc1ccc(N2CCOC2=O)cc1[N+](=O)[O-]", "measurement kind": "melting point", "observed value": "148 °C"}
{"molecule": "Ic1nnnn1C1CCCC1", "measurement kind": "melting point", "observed value": "119 °C"}
{"molecule": "COC(=O)c1c(F)cc(OCCNC(=O)C2Cc3ccccc3N2S(=O)(=O)c2ccc(-c3ccc(F)cc3C)cc2)cc1F (stereo not drawn)", "measurement kind": "melting point", "observed value": "65 to 72 °C"}

Record "Cn1c2c(c3ccccc31)CCNC2" , field melting point: > 250 °C

Record "CCOc1ccc2[nH]ccc2c1OCc1ccccc1" , field melting point: 122 to 123 °C

Record "COc1ccc2cc([C@H](C)C(=O)OCC(=O)N(C)CC(=O)OCCO)ccc2c1" , field melting point: 113 to 114 °C

Record "COc1ccc(C(=O)NCc2ccc(CNC(=O)c3ccc(OC)cc3)cc2)cc1" , field melting point: 249 to 250 °C

Record "O=C1CCc2cc3c(cc21)CCC3" , field melting point: 72.4 to 74.8 °C
